- test summary: Antagonist activity at CCR3 receptor in cynomolgus monkey eosinophil assessed as as inhibition of chemotaxis
pIC50: −log10 of the molar value.
parameter measured: pIC50

• C[C@@H](NC(=O)Nc1cccc(-c2nnnn2C)c1)[C@@H](O)CN1CCC[C@@H](Cc2ccc(F)cc2)C1 = 9.82

====

- test summary: Antagonist activity at CCR3 receptor in mouse eosinophil assessed as as inhibition of chemotaxis
parameter measured: IC50 (nM)

• C[C@@H](NC(=O)Nc1cccc(-c2nnnn2C)c1)[C@@H](O)CN1CCC[C@@H](Cc2ccc(F)cc2)C1 = 870

====

# pIC50 per entry
- test summary: Antagonist activity at human CCR3 receptor in human eosinophil assessed as inhibition of eotaxin-induced chemotaxis
pIC50: −log10 of the molar value.
parameter measured: pIC50

- CC(=O)c1cc(NC(=O)N[C@H](C)CCN2CCC[C@@H](Cc3ccc(F)cc3)C2)cc(-c2nnnn2C)c1: 10.70
- CCC[C@H](CCN1CCC[C@@H](Cc2ccc(F)cc2)C1)NC(=O)Nc1cc(-c2nnnn2C)cc(C(C)(C)O)c1: 10.96
- CC(=O)c1cc(NC(=O)NCCCN2CCC[C@@H](Cc3ccc(F)cc3)C2)cc(C(C)=O)c1: 8.52
- CC[C@H](CCN1CCC[C@@H](Cc2ccc(F)cc2)C1)NC(=O)Nc1cc(-c2nnnn2C)cc(C(C)(C)O)c1: 10.00
- C[C@@H](NC(=O)Nc1cccc(-c2nnnn2C)c1)[C@@H](O)CN1CCC[C@@H](Cc2ccc(F)cc2)C1: 10.40
- CC(C)c1cc(NC(=O)N[C@H](C)CCN2CCC[C@@H](Cc3ccc(F)cc3)C2)cc(-c2nnnn2C)c1: 10.68
- CC(C)c1cc(NC(=O)NCCCN2CCC[C@@H](Cc3ccc(F)cc3)C2)cc(-c2nnnn2C)c1: 9.52
- Cc1cc(NC(=O)NCCCN2CCC[C@@H](Cc3ccc(F)cc3)C2)cc(-c2nnnn2C)c1: 9.00
- CC(=O)c1cccc(NC(=O)NCCCN2CCC[C@@H](Cc3ccc(F)cc3)C2)c1: 7.60
- CC(=O)c1cc(NC(=O)N[C@H](C)CCN2CCC[C@@H](Cc3ccc(F)cc3)C2)cc(C(C)=O)c1: 9.70
